Where these numbers come from: ChEMBL document CHEMBL3745674

Task for the reader: assign each of the following compounds its reported AUC(0-t).
TEST DESCRIPTION: AUC(last) in rat at 5 mg/kg, po
Assay type: ADME, organism-based
Design: dose 5 mg/kg, time 0 - last, route oral
RUN CONDITIONS: in vivo
Answers are plain numbers, in µM·h.

Could you report AUC(0-t) for every entry in the following list?
1. COc1cnc(-n2cnc(C)n2)c2[nH]cc(C(=O)C(=O)N3CCc4c(ncnc4-c4ccccn4)C3)c12
2. COc1cnc(-n2cnc(C)n2)c2[nH]cc(C(=O)C(=O)N3CCN(C(=O)c4ccccc4)CC3)c12

A)
1: 41; 2: 52

* * *

TEST DESCRIPTION: Volume of distribution at steady state in rat at 1 mg/kg, iv
Assay type: ADME, organism-based
RUN CONDITIONS: in vivo, read-out: Vdss
ASSAY READOUT: Vd (L/kg)
Answers are plain numbers, in L/kg.

Q) Quick one: give measured Vd for COc1cnc(-n2cnc(C)n2)c2[nH]cc(C(=O)C(=O)N3CCc4c(ncnc4-c4ccccn4)C3)c12
A) 0.33

* * *

TEST DESCRIPTION: Permeability of compound at pH 7.4 by PAMPA
Assay type: ADME
RUN CONDITIONS: read-out: permeability
ASSAY READOUT: Papp

Q) Answer with the recorded Papp for the molecule listed here: COc1cnc(-n2cnc(C)n2)c2[nH]cc(C(=O)C(=O)N3CCc4c(ncnc4-c4ccccn4)C3)c12
A) 29.4 ×10⁻⁶ cm/s

* * *

TEST DESCRIPTION: Permeability of compound at pH 5.5 by PAMPA
Type: ADME
RUN CONDITIONS: read-out: permeability
ASSAY READOUT: Papp (×10⁻⁶ cm/s)
Numbers only, in ×10⁻⁶ cm/s.

COc1cnc(-n2cnc(C)n2)c2[nH]cc(C(=O)C(=O)N3CCc4c(ncnc4-c4ccccn4)C3)c12 | 24.4

Q) Please list Papp recorded for the compound COc1cnc(-c2cc(C(=O)O)[nH]n2)c2[nH]cc(C(=O)C(=O)N3CCc4c(cccc4-c4ccccn4)C3)c12
A) 3.2

* * *

Could you please report measured Cmax for the items listed next?
TEST DESCRIPTION: Cmax in rat at 5 mg/kg, po
Type: ADME, organism-based
Design: dose 5 mg/kg, route oral
RUN CONDITIONS: in vivo
Please append the unit to your numeric answer.

COc1cnc(-n2cnc(C)n2)c2[nH]cc(C(=O)C(=O)N3CCN(C(=O)c4ccccc4)CC3)c12 | 6.4 µM

Q) Determine from records and report Cmax for COc1cnc(-n2cnc(C)n2)c2[nH]cc(C(=O)C(=O)N3CCc4c(ncnc4-c4ccccn4)C3)c12
A) 10 µM
